- Assay text: Clearance in rat at 2 mg/kg, po or 0.5 mg/kg, iv administered as infusion for 10 mins
- Format: ADME, organism-based
- Condition details: in vivo
Assay endpoint: clearance (mL/min/kg)

* COc1cc(OC)c2cc(-c3cn4nc(OC)sc4n3)oc2c1 | 33
* COc1cc(OCc2cccc(OCc3ccccc3)c2)c2cc(-c3cn4nc(OC)sc4n3)oc2c1 | 10

* * *

- Assay text: Clearance in monkey at 2 mg/kg, po or 0.5 mg/kg, iv administered as infusion for 10 mins
- Assay type: ADME, organism-based, Macaca mulatta
- Condition details: rhesus monkey, in vivo
Assay endpoint: clearance (mL/min/kg)

* COc1cc(OCc2cccc(OCc3ccccc3)c2)c2cc(-c3cn4nc(OC)sc4n3)oc2c1 | 5.2

* * *

- Assay text: Stability in human liver microsomes assessed as parent compound remaining measured after 10 mins
- Assay type: ADME, Microsome
- Condition details: liver microsomes, read-out: Stability
// values below are reported remaining at 10 min
Assay endpoint: remaining at 10 min (%)

- COc1cc(OCc2ccc(C(F)(F)F)cc2)c2cc(-c3cn4nc(OC)sc4n3)oc2c1: 79
- COc1cc(OCc2ccccc2Cl)c2cc(-c3cn4nc(OC)sc4n3)oc2c1: 95
- COc1ccc2cc(-c3cn4nc(OC)sc4n3)oc2c1: 57
- COc1cc(OCc2ccc(OCc3ccccc3)cc2)c2cc(-c3cn4nc(OC)sc4n3)oc2c1: 88
- COc1cc(OCc2cccc(O)c2)c2cc(-c3cn4nc(OC)sc4n3)oc2c1: 97
- COc1cc(OCc2cccc(Oc3ccccc3)c2)c2cc(-c3cn4nc(OC)sc4n3)oc2c1: 86
- COc1cc(OCCOCc2ccccc2)c2cc(-c3cn4nc(OC)sc4n3)oc2c1: 75
- COc1cc(OCc2cccc(Sc3ccccc3)c2)c2cc(-c3cn4nc(OC)sc4n3)oc2c1: 80
- COc1cccc(COc2cc(OC)cc3oc(-c4cn5nc(OC)sc5n4)cc23)c1: 69
- COc1ccc2oc(-c3cn4nc(OC)sc4n3)cc2c1: 30

* * *

- Assay text: Half life in monkey at 2 mg/kg, po or 0.5 mg/kg, iv administered as infusion for 10 mins
- Type: ADME, organism-based, Macaca mulatta
- Condition details: rhesus monkey, in vivo
Assay endpoint: half-life (h)

* COc1cc(OCc2cccc(OCc3ccccc3)c2)c2cc(-c3cn4nc(OC)sc4n3)oc2c1 | 6.2

* * *

- Assay text: Half life in human liver microsomes
- Format: ADME, Microsome
- Condition details: liver microsomes
Assay endpoint: half-life

• CSc1nn2cc(-c3cc4ccccc4o3)nc2s1 = 5.4 min

* * *

- Assay text: Protein binding in human plasma
- Type: ADME, cell-free
- Condition details: read-out: PPB (converted)
Assay endpoint: fraction unbound

• COc1cc(OCc2cccc(OCc3ccccc3)c2)c2cc(-c3cn4nc(OC)sc4n3)oc2c1 = 0.004

* * *

- Assay text: Protein binding in dog plasma
- Type: ADME, cell-free, Canis lupus familiaris
- Condition details: read-out: PPB
Assay endpoint: fraction unbound

• COc1cc(OCc2cccc(OCc3ccccc3)c2)c2cc(-c3cn4nc(OC)sc4n3)oc2c1 = ≤ 0.002

* * *

- Test target: Proteinase-activated receptor 4 (Homo sapiens, UniProt Q96RI0)
- Sequence (Q96RI0 whole entry): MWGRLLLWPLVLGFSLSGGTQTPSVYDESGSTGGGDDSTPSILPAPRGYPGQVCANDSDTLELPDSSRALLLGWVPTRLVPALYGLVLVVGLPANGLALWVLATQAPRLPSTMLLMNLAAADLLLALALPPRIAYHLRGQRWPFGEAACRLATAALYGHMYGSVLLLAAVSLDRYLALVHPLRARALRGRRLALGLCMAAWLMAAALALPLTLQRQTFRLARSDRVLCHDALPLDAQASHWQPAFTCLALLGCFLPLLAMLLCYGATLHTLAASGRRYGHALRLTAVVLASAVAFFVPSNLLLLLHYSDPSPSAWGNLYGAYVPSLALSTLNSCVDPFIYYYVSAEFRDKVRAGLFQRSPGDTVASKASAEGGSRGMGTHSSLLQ
- Assay text: Antagonist activity at full-length human PAR4 expressed in HEK293 cells assessed as inhibition of AYPGKF-induced intracellular calcium mobilization preincubated for 30 mins followed by AYPGKF addition and measured by calcium indicator-based FLIPR assay
Just a reminder that ties go to Not fulfilled: only IC50 strictly below 30 nM counts as Fulfilled.

• COc1cc(OCc2ccccc2Cl)c2cc(-c3cn4nc(OC)sc4n3)oc2c1 = Fulfilled
• c1ccc(Sc2nn3cc(-c4cc5ccccc5o4)nc3s2)cc1 = Not fulfilled
• CNc1nn2cc(-c3cc4ccccc4o3)nc2s1 = Not fulfilled
• COc1cc(OCc2cccc(O)c2)c2cc(-c3cn4nc(OC)sc4n3)oc2c1 = Fulfilled
• COc1cccc(COc2cc(OC)cc3oc(-c4cn5nc(OC)sc5n4)cc23)c1 = Fulfilled
• COc1nn2cc(-c3cc4c(OCc5ccccc5)cccc4o3)nc2s1 = Fulfilled
• CCSc1nn2cc(-c3cc4ccccc4o3)nc2s1 = Not fulfilled
• CSc1nn2cc(-c3cc4ccccc4o3)nc2s1 = Fulfilled
• COc1cc(OCc2ccc(Cl)cc2)c2cc(-c3cn4nc(OC)sc4n3)oc2c1 = Fulfilled
• COc1cc(OCc2ccc(OCc3ccccc3)cc2)c2cc(-c3cn4nc(OC)sc4n3)oc2c1 = Fulfilled
• Cc1nn2cc(-c3cc4ccccc4o3)nc2s1 = Not fulfilled
• COc1nn2cc(-c3cc4c(OC)cccc4o3)nc2s1 = Fulfilled
• COc1nn2cc(-c3cc4ccccc4o3)nc2s1 = Fulfilled
• COc1cc(OCc2cccc(COc3ccccc3)c2)c2cc(-c3cn4nc(OC)sc4n3)oc2c1 = Fulfilled
• CCOc1nn2cc(-c3cc4ccccc4o3)nc2s1 = Not fulfilled
• COc1cc(OCc2ccccc2C)c2cc(-c3cn4nc(OC)sc4n3)oc2c1 = Fulfilled
• COc1cc(OCc2cccc(C#N)c2)c2cc(-c3cn4nc(OC)sc4n3)oc2c1 = Fulfilled
• CS(=O)(=O)c1nn2cc(-c3cc4ccccc4o3)nc2s1 = Not fulfilled
• c1ccc2oc(-c3cn4nc(C5CC5)sc4n3)cc2c1 = Not fulfilled
• COc1cc(OCc2cccc(Sc3ccccc3)c2)c2cc(-c3cn4nc(OC)sc4n3)oc2c1 = Fulfilled
• COc1cc(OCc2cccc(CO)c2)c2cc(-c3cn4nc(OC)sc4n3)oc2c1 = Fulfilled

* * *

- Assay text: Clearance in dog at 2 mg/kg, po or 0.5 mg/kg, iv administered as infusion for 10 mins
- Format: ADME, organism-based, Canis lupus familiaris
- Condition details: in vivo
Assay endpoint: clearance (mL/min/kg)

• COc1cc(OCc2cccc(OCc3ccccc3)c2)c2cc(-c3cn4nc(OC)sc4n3)oc2c1 = 1.6

* * *

- Assay text: Half life in dog at 2 mg/kg, po or 0.5 mg/kg, iv administered as infusion for 10 mins
- Assay type: ADME, organism-based, Canis lupus familiaris
- Condition details: in vivo
Assay endpoint: half-life

• COc1cc(OCc2cccc(OCc3ccccc3)c2)c2cc(-c3cn4nc(OC)sc4n3)oc2c1 = 7 h

* * *

- Test target: Proteinase-activated receptor 4 (Homo sapiens)
- Assay text: Antagonist activity at full-length human PAR4 expressed in HEK293 cells assessed as inhibition of AYPGKF-induced intracellular calcium mobilization preincubated for 30 mins followed by AYPGKF addition and measured by calcium indicator-based FLIPR assay
- Assay type: functional, cell-based
pIC50: −log10 of the molar value.
Outcome: Yes for pIC50 of at least 8; No for anything lower.

* COc1cc(OCc2ccccc2OC)c2cc(-c3cn4nc(OC)sc4n3)oc2c1 | No
* CCc1nn2cc(-c3cc4ccccc4o3)nc2s1 | No
* COc1cc(OCc2ccc(C(F)(F)F)cc2)c2cc(-c3cn4nc(OC)sc4n3)oc2c1 | Yes
* COc1cc(OCc2ccccc2OCc2ccccc2)c2cc(-c3cn4nc(OC)sc4n3)oc2c1 | Yes
* COc1cc(OCc2cccc(Cl)c2)c2cc(-c3cn4nc(OC)sc4n3)oc2c1 | Yes

* * *

- Assay text: Stability in human liver microsomes assessed as parent compound remaining measured after 10 mins
- Type: ADME, Microsome
- Condition details: liver microsomes, read-out: Stability
Assay endpoint: remaining at 10 min

* CCOc1nn2cc(-c3cc4ccccc4o3)nc2s1 | 57%
* CSc1nn2cc(-c3cc4ccccc4o3)nc2s1 | 25%
* COc1cc(OCc2cccc(CCc3ccccc3)c2)c2cc(-c3cn4nc(OC)sc4n3)oc2c1 | 99%

* * *

- Assay text: Stability in human liver microsomes assessed as parent compound remaining measured after 10 mins
- Assay type: ADME, Microsome
- Condition details: liver microsomes, read-out: Stability
Assay endpoint: remaining at 10 min (%)

- CCSc1nn2cc(-c3cc4ccccc4o3)nc2s1: 45
- COc1nn2cc(-c3cc4c(OC)ccc(OC)c4o3)nc2s1: 55
- COc1cc(OCc2ccccc2OCc2ccccc2)c2cc(-c3cn4nc(OC)sc4n3)oc2c1: 94
- COc1cc(OCc2cccc(C(F)(F)F)c2)c2cc(-c3cn4nc(OC)sc4n3)oc2c1: 93
- COc1nn2cc(-c3cc4cccc(OC)c4o3)nc2s1: 25
- c1ccc2oc(-c3cn4nc(C5CC5)sc4n3)cc2c1: 62
- COc1cc(OCc2cccc(C#N)c2)c2cc(-c3cn4nc(OC)sc4n3)oc2c1: 100
- COc1cc(OCc2cccc(COc3ccccc3)c2)c2cc(-c3cn4nc(OC)sc4n3)oc2c1: 86
- COc1nn2cc(-c3cc4c(OCc5ccccc5)cccc4o3)nc2s1: 85
- COc1cc(OCCc2ccccc2)c2cc(-c3cn4nc(OC)sc4n3)oc2c1: 89
- COc1cc(OCc2ccccc2OC)c2cc(-c3cn4nc(OC)sc4n3)oc2c1: 82
- COc1cc(OCc2cccc(Cl)c2)c2cc(-c3cn4nc(OC)sc4n3)oc2c1: 82
- COc1nn2cc(-c3cc4ccc(OC)c(OC)c4o3)nc2s1: 20
- CNc1nn2cc(-c3cc4ccccc4o3)nc2s1: 65
- COc1nn2cc(-c3cc4ccc(OCc5ccccc5)cc4o3)nc2s1: 94
- COc1nn2cc(-c3cc4c(OC)cccc4o3)nc2s1: 40
- COc1cc(OCCOc2ccccc2)c2cc(-c3cn4nc(OC)sc4n3)oc2c1: 65
- COc1cc(OCc2cccc(OCc3ccccc3)c2)c2cc(-c3cn4nc(OC)sc4n3)oc2c1: 85
- CCc1nn2cc(-c3cc4ccccc4o3)nc2s1: 30
- COc1ccc(COc2cc(OC)cc3oc(-c4cn5nc(OC)sc5n4)cc23)cc1: 73
- Cc1nn2cc(-c3cc4ccccc4o3)nc2s1: 20
- COc1cc(OCc2ccccc2C)c2cc(-c3cn4nc(OC)sc4n3)oc2c1: 90
